I'd be grateful if you could share measured fold induction at 10 µM for these entries.
- Tested on: Chondrozyten
- test details: Stimulation of cartilage matrix (proteoglycan) synthesis in chondrocyte agarose culture, 35S-sulfate incorporation
- Type: cell-based, Rinder
- experimental conditions: Chondrocyte; agarose cell culture; test substance usually 10⁻⁵ M; mean sulfate incorporation divided by untreated control (>1 = stimulation); read-out: Stimulationsfaktor der Proteoglykansynthese
One number for each entry.

Consider the worked cases shown below.
[
  {
    "molecule": "CCCOP(=O)(OCCC)C(NCc1ccc2c(c1)OCO2)c1cc(C(C)(C)C)c(O)c(C(C)(C)C)c1 (centres unmarked)",
    "fold induction at 10 µM": 1.2
  },
  {
    "molecule": "CCCCOP(=O)(OCCCC)C(Nc1ccc(Cl)c(Cl)c1)c1cc(C(C)(C)C)c(O)c(C(C)(C)C)c1 (centres unmarked)",
    "fold induction at 10 µM": 1.2
  }
]

Value sought for every listed molecule: fold induction at 10 µM.
1. CC(=O)Oc1cccc2c1C(=O)c1c(OC(C)=O)cc(C(=O)O)cc1C2=O [Diacerein, reference compound]
2. CC(C)(C)c1cc(C(Nc2ccccc2)[PH](=O)O)cc(C(C)(C)C)c1O (centres unmarked)
3. CCCOP(=O)(OCCC)C(Nc1ccc2c(c1)OCO2)c1cc(C(C)(C)C)c(O)c(C(C)(C)C)c1 (centres unmarked)

1
1.2
1.2
